# IC50 per record follows
- Tested on: HepG2
- experimental_details: Cytotoxicity against human HepG2 cells assessed as reduction in cell viability after 48 hrs by MTT assay
- Assay type: cell-based
- test_context: HepG2, 48 h
# include the unit after the value

CCCCCCCCn1cc(CN2CCC3(CC2)OCCO3)c2ccc(F)cc21 : 25.5 µM

Query: // fetch HepG2 IC50 for CCCCCCCCn1cc(CN2CCC3(CC2)OCCO3)c2c(F)cccc21
Reply: 21.8 µM

Query: Try this compound too: CCCCCCCCn1cc(CN2CCCCCC2)c2c(F)cccc21
Reply: 19.2 µM

Query: Try this compound too: CCCCCCCCn1cc(CNC23CC4CC(CC(C4)C2)C3)c2c(F)cccc21
Reply: 13 µM

Query: Try this compound too: CCCCCCCCn1cc(CN2CCC(C)CC2)c2ccc(OC)cc21
Reply: 15.7 µM

Query: Try this compound too: CCCCCCCCn1cc(CN2CCC(C)CC2)c2c(F)cccc21
Reply: 15.6 µM

Query: Try this compound too: CCCCCCCCn1cc(CN2CCC3(CC2)OCCO3)c2ccc(OC)cc21
Reply: 15.7 µM

====

- experimental_details: Selectivity index, ratio of IC50 for African green monkey Vero E6 cells to MIC50 for Mycobacterium tuberculosis H37Rv ATCC 27294
- Assay type: toxicity, Vero C1008
- test_context: read-out: Selectivity Index
We use 10 as the dividing line for selectivity ratio: on or above the line is yes, below is no.

Answered cases to consult:
CCCCCCCCn1cc(CN2CCCCCC2)c2c(F)cccc21 : yes
CCCCCCCCn1cc(CN2CCC(C)CC2)c2ccc(OC)cc21 : yes
CCCCCCCCn1cc(CN2CCC3(CC2)OCCO3)c2ccc(OC)cc21 : yes
CCCCCCCCn1cc(CN2CCC3(CC2)OCCO3)c2c(F)cccc21 : no
CCCCCCCCn1cc(CNC23CC4CC(CC(C4)C2)C3)c2c(F)cccc21 : no
CCCCCCCCn1cc(CN2CCC3(CC2)OCCO3)c2ccc(F)cc21 : yes

Query: API: above_or_equal(metric=selectivity ratio, cutoff=10) for item CC(C)=CCC/C(C)=C/Cn1cc(CN2CCCCC2)c2cc(F)ccc21
Reply: no

Query: Try this molecule too: CCCCCCCCn1cc(CN2CCC(C)CC2)c2c(F)cccc21
Reply: yes

====

- System: Lipid bilayer
- experimental_details: Binding affinity to DMPG vesicles assessed as change in enthalpy by differential scanning calorimetric analysis
# deltaH per record follows
Supply the numeric figure in kcal/mol, leaving out any unit text.

Query: Recorded deltaH for CCCCCCCCn1cc(CN2CCC(C)CC2)c2c(F)cccc21 , please?
Reply: -2.69

Query: Try this molecule too: CCn1cc(CN2CCCCCC2)c2c(F)cccc21
Reply: -3.44

Query: Try this molecule too: CCCCCCCCn1cc(CN2CCC3(CC2)OCCO3)c2ccc(OC)cc21
Reply: -1.59

Query: Try this molecule too: CCCCCCn1cc(CN2CCCCCC2)c2c(F)cccc21
Reply: -1.52

Query: Try this molecule too: CCCCn1cc(CN2CCCCCC2)c2c(F)cccc21
Reply: -3.3

Query: Try this molecule too: Fc1cccc2[nH]cc(CN3CCCCCC3)c12
Reply: -4.83

Query: Try this molecule too: CCCCCCCCn1cc(CN2CCCCCC2)c2c(F)cccc21
Reply: -1.39

Query: Try this molecule too: CCCCCCCCCCCCn1cc(CN2CCCCCC2)c2c(F)cccc21
Reply: -0.44

Query: Try this molecule too: CCCCCCCCn1cc(C(=O)N2CCCCCC2)c2cc(F)ccc21
Reply: -2.52

====

- System: Lipid bilayer
- experimental_details: Binding affinity to DMPG vesicles assessed as increase in width at 1/2 height of endotherm of compound containing vesicles by differential scanning calorimetric analysis
Calls of active or inactive are those of the source. The rule behind the calls is not given here.
Outcome (select one): active, inactive

CCCCCCCCn1ccc2c(F)cccc21 : inactive
CCCCCCCCCCCCn1cc(CN2CCCCCC2)c2c(F)cccc21 : inactive
CCCCCCCCn1cc(CN2CCCCCC2)c2c(F)cccc21 : active
CCCCCCCCn1cc(C(=O)N2CCCCCC2)c2cc(F)ccc21 : inactive

Continue with the molecule presented below.
Query: Kindly provide the recorded test outcome for the following molecule: CCCCCCCCCCn1cc(CN2CCCCCC2)c2c(F)cccc21
Reply: inactive

====

# half-life per record follows
- experimental_details: Half life in rat liver microsomes preincubated for 5 mins followed by NADPH addition measured up to 45 mins by LC-MS analysis
- Assay type: ADME, microsome
Supply the numeric figure in min, leaving out any unit text.

Example cases with answers are listed next.
CCCCCCCCn1cc(CNC23CC4CC(CC(C4)C2)C3)c2c(F)cccc21 : 15.9
CCCCCCCCn1cc(CN2CCC(C)CC2)c2c(F)cccc21 : 22.8
CCCCCCCCn1cc(CN2CCC(C)CC2)c2ccc(OC)cc21 : 5.5
CCCCCCCCn1cc(CN2CCC3(CC2)OCCO3)c2ccc(OC)cc21 : 27.9

Next item in the queue.
Query: Recorded half-life for CCCCCCCCn1cc(CN2CCCCCC2)c2c(F)cccc21 , please?
Reply: 560

====

# selectivity ratio per record follows
- experimental_details: Selectivity index, ratio of IC50 for human HepG2 cells to MIC50 for Mycobacterium tuberculosis H37Rv ATCC 27294
- Type: toxicity
- test_context: read-out: Selectivity Index
Write no unit; give the number alone.

CCCCCCCCn1cc(CN2CCC(C)CC2)c2ccc(OC)cc21 : 10.5
CCCCCCCCn1cc(CN2CCC3(CC2)OCCO3)c2c(F)cccc21 : 4.1
CCCCCCCCn1cc(CN2CCC3(CC2)OCCO3)c2ccc(F)cc21 : 8.5

Query: Recorded selectivity ratio for CCCCCCCCn1cc(CN2CCC3(CC2)OCCO3)c2ccc(OC)cc21 , please?
Reply: 13.1

Query: Try this compound too: CCCCCCCCn1cc(CNC23CC4CC(CC(C4)C2)C3)c2c(F)cccc21
Reply: 6.5

Query: Try this compound too: CCCCCCCCn1cc(CN2CCC(C)CC2)c2c(F)cccc21
Reply: 5.2

Query: Try this compound too: CCCCCCCCn1cc(CN2CCCCCC2)c2c(F)cccc21
Reply: 8.3

====

- Test system: Lipid bilayer
- experimental_details: Binding affinity to DMPG vesicles assessed as melting transition temperature by differential scanning calorimetric analysis (reference value: 21.09 to 23.32 degC)
quantity_measured: Tm (°C)
Supply the numeric figure in °C, leaving out any unit text.

Example cases with answers are listed next.
CCCCCCCCn1ccc2c(F)cccc21 : 19.9
CCCCCCCCn1cc(CN2CCC3(CC2)OCCO3)c2ccc(OC)cc21 : 18.1

Query: Recorded Tm for CCCCCCCCn1cc(CN2CCC(C)CC2)c2c(F)cccc21 , please?
Reply: 19.8

Query: Try this compound too: CCCCn1cc(CN2CCCCCC2)c2c(F)cccc21
Reply: 19

Query: Try this compound too: CCn1cc(CN2CCCCCC2)c2c(F)cccc21
Reply: 19.8

Query: Try this compound too: CCCCCCCCn1cc(C(=O)N2CCCCCC2)c2cc(F)ccc21
Reply: 18.9

====

- System: Mycolicibacterium smegmatis
- experimental_details: Antimycobacterial activity against Mycobacterium smegmatis MC2 155 ATCC 700084 assessed as growth inhibition at 10 uM after 5 days relative to control
- Format: functional
- test_context: MC2 155 ATCC 700084, 120 h, read-out: GI
# inhibition of growth at 10 µM per record follows
Supply the numeric figure in %, leaving out any unit text.

Example cases with answers are listed next.
CC(C)=CCC/C(C)=C/Cn1cc(CN2CCCCC2)c2cc(F)ccc21 : 99
CC(C)=CCC/C(C)=C/Cn1cc(CN2CCCC2)c2cc(F)ccc21 : 99
CCCCCCCCn1ccc2cc(F)ccc21 : 99
CCCCCCCCn1cc(CNC23CC4CC(CC(C4)C2)C3)c2ccc(F)cc21 : 99
CCCCCCCCn1cc(CN2CCCCC2)c2ccc(F)cc21 : 99

Query: Recorded inhibition of growth at 10 µM for Fc1cccc2[nH]cc(CN3CCCCCC3)c12 , please?
Reply: 99

Query: Try this molecule too: CC(C)=CCC/C(C)=C/Cn1cc(CN2CCCCC2)c2ccccc21
Reply: 99

====

- Test system: Lipid bilayer
- experimental_details: Binding affinity to DMPG vesicles assessed as melting transition temperature by differential scanning calorimetric analysis (reference value: 21.09 to 23.32 degC)
quantity_measured: Tm (°C)
Supply the numeric figure in °C, leaving out any unit text.

CCCCCCCCn1cc(CN2CCC(C)CC2)c2ccc(OC)cc21 : 18.9
CCCCCCCCCCn1cc(CN2CCCCCC2)c2c(F)cccc21 : 18.6
Fc1cccc2[nH]cc(CN3CCCCCC3)c12 : 20.4
CCCCCCCCn1cc(CN2CCC3(CC2)OCCO3)c2ccc(F)cc21 : 18.5
CCCCCCCCn1cc(CN2CCC3(CC2)OCCO3)c2c(F)cccc21 : 19.4

Query: Recorded Tm for CCCCCCn1cc(CN2CCCCCC2)c2c(F)cccc21 , please?
Reply: 19

Query: Try this molecule too: CCCCCCCCn1cc(CN2CCCCCC2)c2c(F)cccc21
Reply: 18

Query: Try this molecule too: CCCCCCCCCCCCn1cc(CN2CCCCCC2)c2c(F)cccc21
Reply: 18.8
